Target: Aldehyde dehydrogenase 1A1 (Homo sapiens) (UniProt P00352)
Sequence (P00352 whole entry, looked up): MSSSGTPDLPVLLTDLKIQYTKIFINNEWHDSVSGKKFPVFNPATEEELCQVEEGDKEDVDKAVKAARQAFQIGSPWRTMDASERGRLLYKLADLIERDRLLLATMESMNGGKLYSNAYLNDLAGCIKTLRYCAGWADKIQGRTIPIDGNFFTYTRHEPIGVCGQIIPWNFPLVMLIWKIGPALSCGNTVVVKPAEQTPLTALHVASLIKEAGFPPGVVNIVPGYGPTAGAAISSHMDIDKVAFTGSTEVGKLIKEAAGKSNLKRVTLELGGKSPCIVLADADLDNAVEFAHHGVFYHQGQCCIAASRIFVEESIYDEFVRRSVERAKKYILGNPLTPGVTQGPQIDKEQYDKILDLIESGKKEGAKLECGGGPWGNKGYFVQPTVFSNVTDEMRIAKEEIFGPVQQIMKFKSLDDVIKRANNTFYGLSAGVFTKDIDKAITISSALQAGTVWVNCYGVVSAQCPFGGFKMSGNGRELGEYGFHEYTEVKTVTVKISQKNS
Assay: qHTS Assay for Inhibitors of Aldehyde Dehydrogenase 1 (ALDH1A1)
Conditions: Purified ALDH1A1, NADH fluorescence, propionaldehyde substrate; series mostly up to 75.3 µM
Out of some 220,000 compounds screened, about 16,000 (7.3%) were called active. Roughly 25% stayed inconclusive and do not appear here. Calls come from the whole dose curve; as a rule, active = well fitted inhibition curve with a large enough effect (not every such curve was filed as active); inconclusive = small, poorly fitted or top-dose-only effect, or another doubt; inactive = no such curve, though single readings can be large or run the other way. Only a selection was taken, and actives are over-represented in it overall.
Hello, when you answer, please use one of the following outcomes: active, inactive

Some solved entries appear below for comparison.
>  <molecule>
CN1CCC(=NNC(=O)c2ccc(N(Cc3ccc(Cl)cc3)S(C)(=O)=O)cc2)CC1

>  <class>
active

$$$$
>  <molecule>
CCOc1ccc(Br)cc1S(=O)(=O)Nc1cccc(S(=O)(=O)N(CC)CC)c1

>  <class>
active

$$$$
>  <molecule>
O=C(NCc1ccncc1)C(=O)NCc1ccco1

>  <class>
inactive

$$$$

How did this test come out for O=C(NNc1cc(Cl)ccc1Cl)c1cccnc1Cl ?
inactive

How did this test come out for COc1ccc([C@H]2[C@H](C(C)=O)N3N=Cc4ccccc4C3C23C(=O)OC(C)(C)OC3=O)cc1 (stereo not given in full) ?
active

How did this test come out for CC(C)c1nccn1S(=O)(=O)c1cc([N+](=O)[O-])ccc1Cl ?
inactive

How did this test come out for CCOc1ccc(Br)cc1S(=O)(=O)N1CCC(C(=O)O)CC1 ?
inactive

How did this test come out for CC(C)(C)c1ccc(/C=C2\SC(=O)N=C2N)cc1 ?
inactive

How did this test come out for Cc1ccnc(NS(=O)(=O)c2ccc(NC(=O)c3ccc(S(=O)(=O)N4CCOCC4)cc3)cc2)n1 ?
inactive

How did this test come out for CCOc1ccc(Br)cc1S(=O)(=O)Nc1ccc(C(=O)OC(C)C(=O)N(C)c2ccccc2)cc1 (stereo not given) ?
inactive

* * *

Biological target: Aldehyde dehydrogenase 1A1 (Homo sapiens)
Test: qHTS Assay for Inhibitors of Aldehyde Dehydrogenase 1 (ALDH1A1)
Settings: Purified ALDH1A1, NADH fluorescence, propionaldehyde substrate; series mostly up to 75.3 µM
Hit rate of the full screen: of about 220,000 compounds, about 16,000 (7.3%) were called active. About 25% were inconclusive and are not listed. The call rests on the fitted dose curve; in most records, active means well fitted inhibition curve with a large enough effect (not every such curve was filed as active); inconclusive means small, poorly fitted or top-dose-only effect, or another doubt; inactive means no such curve, though single readings can be large or run the other way. This excerpt belongs to a sample that is enriched for actives.
Hello, when you answer, please use one of the following outcomes: active, inactive

>  <compound>
Cn1c(-c2ccc(F)cc2)cnc1SCC(=O)NCc1ccco1

>  <class>
active

$$$$
>  <compound>
CCCCCCCCCCCCC(NC(C)=O)(C(=O)OCC)C(=O)OCC

>  <class>
inactive

$$$$
>  <compound>
O=C(OCc1ccccc1F)c1ccc2c(c1)OCCO2

>  <class>
inactive

$$$$
>  <compound>
CN1CCN(c2ccc(S(=O)(=O)Nc3ccccc3)cc2[N+](=O)[O-])CC1

>  <class>
inactive

$$$$
>  <compound>
CCNC(=O)c1ccc(OCC(=O)Nc2ccc(F)cc2)c(OC)c1

>  <class>
inactive

$$$$

How did this test come out for C/C(=C\c1ccco1)CN1CCC(N2CCC(C(=O)N3CCOCC3)CC2)CC1 ?
inactive

How did this test come out for C=CCN(C(=O)c1cc(C)cc(C)c1)C1(C(=O)Nc2ccccc2)CCN(C(C)C)CC1 ?
inactive

How did this test come out for C/C(=N\NC(=O)c1cccnc1)c1ccc(-c2ccccc2)cc1 ?
inactive

How did this test come out for O=C(CSc1nnc2scc(-c3ccc(F)cc3)n12)NCc1ccco1 ?
inactive

How did this test come out for COc1ccc(-c2csc(Nc3ccccn3)n2)cc1 ?
inactive

How did this test come out for CCC(C)[C@@H](C(=O)N1CCNCC1)n1cc(CCCCN)nn1 (some centres not stated) ?
inactive

How did this test come out for COC(=O)c1ccc(CN2CCC(CO)(Cc3ccc(OC)cc3)CC2)cc1 ?
inactive

* * *

Target: Aldehyde dehydrogenase 1A1 (Homo sapiens) (UniProt P00352)
Assay: qHTS Assay for Inhibitors of Aldehyde Dehydrogenase 1 (ALDH1A1)
Settings: Purified ALDH1A1, NADH fluorescence, propionaldehyde substrate; series mostly up to 75.3 µM
Screen size: about 220,000 compounds; about 16,000 (7.3%) were called active. Roughly 25% stayed inconclusive and do not appear here. The call rests on the fitted dose curve; in most records, active means well fitted inhibition curve with a large enough effect (not every such curve was filed as active); inconclusive means small, poorly fitted or top-dose-only effect, or another doubt; inactive means no such curve, though single readings can be large or run the other way. For the sample, actives were picked, then their nearest neighbours and some compounds at random.
Hello, when you answer, please use one of the following outcomes: TRUE for active, FALSE for inactive

Some solved entries appear below for comparison.
>  <compound>
COc1ccc(CS(=O)/C(Cl)=C(/Cl)C(=O)Nc2ccc(OC)nc2)cc1 (configuration not stated)

>  <class>
TRUE

$$$$
>  <compound>
CCNC(=O)CN(c1ccc(C)cc1)S(=O)(=O)c1ccc(SC)cc1

>  <class>
TRUE

$$$$
>  <compound>
COc1ccc(Cl)cc1N(CC(=O)N/N=C/c1ccc(OCC(N)=O)cc1)S(C)(=O)=O

>  <class>
FALSE

$$$$

How did this test come out for CC(CNc1ccc([N+](=O)[O-])c2cccnc12)Nc1c([N+](=O)[O-])cc(C(F)(F)F)cc1[N+](=O)[O-] (configuration not stated) ?
FALSE

How did this test come out for O=C(/C=C/c1ccccc1)c1ccccc1O ?
FALSE

How did this test come out for CCCCCc1ccc(-c2ccc(OCC)cc2)nc1 ?
FALSE

How did this test come out for CCCCN1C(=O)/C(=C2/C=CC=CN2C)SC1=S ?
TRUE

How did this test come out for COC(=O)c1c(C(=O)OC)c(-c2cccc(C)c2)n2c1CS(=O)C2 (configuration not stated) ?
FALSE

How did this test come out for CCN(CC)CCCNC(=O)c1ccc2c(=O)n(Cc3ccc4c(c3)OCO4)c(=S)[nH]c2c1 ?
FALSE

How did this test come out for COc1cc(C2C(N3C(=O)c4ccccc4C3=O)C(=O)N2c2ccc(C)c(C)c2)cc(OC)c1OC (configuration not stated) ?
FALSE

How did this test come out for CCOc1cc(/C=C(/C#N)c2ccc(Cl)cc2)cc(Cl)c1OCC(=O)O ?
FALSE

How did this test come out for Cc1ccc(S(=O)(=O)N(CC(=O)NCCSC2CCCCC2)c2ccccc2F)cc1 ?
FALSE

* * *

Biological target: Aldehyde dehydrogenase 1A1 (Homo sapiens) (UniProt P00352)
Experiment: qHTS Assay for Inhibitors of Aldehyde Dehydrogenase 1 (ALDH1A1)
Conditions: Purified ALDH1A1, NADH fluorescence, propionaldehyde substrate; series mostly up to 75.3 µM
Hit rate of the full screen: of about 220,000 compounds, about 16,000 (7.3%) were called active. About 25% were inconclusive and are not listed. The call rests on the fitted dose curve; in most records, active means well fitted inhibition curve with a large enough effect (not every such curve was filed as active); inconclusive means small, poorly fitted or top-dose-only effect, or another doubt; inactive means no such curve, though single readings can be large or run the other way. Only a selection was taken, and actives are over-represented in it overall.
Hello, when you answer, please use one of the following outcomes: active, inactive

Some solved entries appear below for comparison.
>  <compound>
COc1ccc(-n2c(C)nn(CC3CC3)c2=O)cc1

>  <target.or.system>
Aldehyde dehydrogenase 1A1 (Homo sapiens) (UniProt P00352)

>  <class>
inactive

$$$$
>  <compound>
CCC(C)NC(=O)c1ccccc1NC(=O)c1ccccc1N(C)S(C)(=O)=O (stereo unspecified)

>  <target.or.system>
Aldehyde dehydrogenase 1A1 (Homo sapiens) (UniProt P00352)

>  <class>
inactive

$$$$
>  <compound>
COCC(C)NC(=O)COc1nncc2ccccc12 (stereo unspecified)

>  <target.or.system>
Aldehyde dehydrogenase 1A1 (Homo sapiens) (UniProt P00352)

>  <class>
inactive

$$$$

How did this test come out for CCCCNC(=O)c1ccccc1NC(=O)c1ccccc1N(C)S(C)(=O)=O ?
active

How did this test come out for O=C(NCCCn1ccnc1)C(=O)c1cn(CC(=O)N2CCCCCC2)c2ccccc12 ?
active

How did this test come out for C/C=C1\C2C=C(C)CC1(N)c1ccc(=O)[nH]c1C2 (stereo unspecified) ?
inactive

How did this test come out for CCN(CC)N=Nc1cccc(NC(C)=O)c1 ?
inactive

How did this test come out for CCc1ccc(NC(=O)CSc2nc3ccccc3c(=O)n2CCN2CCOCC2)cc1 ?
inactive

How did this test come out for O=C1OCC2=C1C(c1ccccc1)CC(=O)N2c1cccc(F)c1 (stereo unspecified) ?
inactive

How did this test come out for Cc1cc(C(=O)Nc2ccccc2N2CCOCC2)c2ccccc2n1 ?
inactive

How did this test come out for CCOC(=O)c1c(NC(=O)C2CC=CCC2C(=O)O)sc(C)c1CC (stereo unspecified) ?
inactive

* * *

Target: Aldehyde dehydrogenase 1A1 (Homo sapiens)
Assay: qHTS Assay for Inhibitors of Aldehyde Dehydrogenase 1 (ALDH1A1)
Conditions: Purified ALDH1A1, NADH fluorescence, propionaldehyde substrate; series mostly up to 75.3 µM
The whole screen tested about 220,000 compounds, of which about 16,000 (7.3%) were called active. Roughly 25% stayed inconclusive and do not appear here. Calls come from the whole dose curve; as a rule, active = well fitted inhibition curve with a large enough effect (not every such curve was filed as active); inconclusive = small, poorly fitted or top-dose-only effect, or another doubt; inactive = no such curve, though single readings can be large or run the other way. The sample as a whole holds a higher share of actives than the screen did.
Hello, when you answer, please use one of the following outcomes: true (1) for active, false (0) for inactive

Some solved entries appear below for comparison.
>  <compound>
CC1(C)CC(=O)C(N=Nc2ccc(S(=O)(=O)N3CCCCCC3)cc2)=C(O)C1

>  <class>
true (1)

$$$$
>  <compound>
CN1CCN(NC(=O)c2ccc(S(=O)(=O)N3CCCCCC3)cc2)CC1

>  <class>
false (0)

$$$$
>  <compound>
Cc1ccc(N2C(=O)C(NC(=O)c3c(F)cccc3F)(C(F)(F)F)C3=C2CC(C)(C)CC3=O)cc1 (stereo unspecified)

>  <class>
false (0)

$$$$
>  <compound>
COC(=O)c1cc2n(n1)CCCNC2=O

>  <class>
false (0)

$$$$
>  <compound>
CC1(C)CC(=O)C(N=Nc2c(F)cccc2F)=C(O)C1

>  <class>
true (1)

$$$$

Here's the next entry for you.
How did this test come out for C/C(=C\C(=O)c1ccc(Br)cc1)N1CCCCC1 ?
true (1)

Source listed as PubChem BioAssay AID1030.
